biological target: glucagon receptor (Homo sapiens); assay: cAMP induction at the glucagon receptor (agonist activity), luciferase reporter assay in HEK293 cells; assay type: cell-based; design: expressed in transfected cells; host or cells: HEK293; conditions: Table 5; read-out: GR EC50
Sequence (P47871 26-477): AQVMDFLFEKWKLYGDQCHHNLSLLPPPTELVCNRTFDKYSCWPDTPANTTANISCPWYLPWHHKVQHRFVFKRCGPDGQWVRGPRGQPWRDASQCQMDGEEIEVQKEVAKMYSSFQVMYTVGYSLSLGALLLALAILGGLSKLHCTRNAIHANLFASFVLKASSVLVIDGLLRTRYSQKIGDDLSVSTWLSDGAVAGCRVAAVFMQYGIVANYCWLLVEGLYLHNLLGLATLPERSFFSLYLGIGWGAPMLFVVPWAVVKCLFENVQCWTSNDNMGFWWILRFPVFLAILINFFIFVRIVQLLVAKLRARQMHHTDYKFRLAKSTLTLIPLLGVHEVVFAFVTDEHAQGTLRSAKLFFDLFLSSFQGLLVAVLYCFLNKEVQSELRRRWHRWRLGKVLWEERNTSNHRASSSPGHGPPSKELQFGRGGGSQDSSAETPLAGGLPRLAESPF
Bridge positions count the residues as written; N and C are the ends. Square brackets hold non-standard residues; d marks the D form. Side chains are listed from the residue outwards. Ends that are not written are not given here. PEG40kDa = 40 kDa polyethylene glycol; Ac‑Cys = acetylated cysteine; Aib = CC(C)(N)C(=O)O
outcome_measure: EC50 (nM)
Provide the reading as a plain figure in nM.

mt-226: as mt-218 but modified Lys at position 40 and Asn at position 24; SEQ ID NO: 23 (Y[Aib]QGTFTSDYSIYLDEQAAKEFVNWLLAGGPSSGAPPPSK([Glu-Ac‑Cys-PEG40kDa])-NH2; lactam 16-20)
3.46

Name the recorded EC50 for mt-225: as mt-217 but modified Lys at position 40 and Asn at position 24; SEQ ID NO: 359 (Y[Aib]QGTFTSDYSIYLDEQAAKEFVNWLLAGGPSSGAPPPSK([Ala-Ac‑Cys-PEG40kDa])-NH2; lactam 16-20) .
2.71

Input mt-218: as mt-217 with Glu as the amino acid spacer; SEQ ID NO: 20 (Y[Aib]QGTFTSDYSIYLDEQAAKEFVK([Glu-Ac‑Cys-PEG40kDa])FLLAGGPSSGAPPPS-NH2; lactam 16-20)
16.3

Same thing, different substance: mt-228: as mt-220 but modified Lys at position 40 and Asn at position 24; SEQ ID NO: 24 (Y[Aib]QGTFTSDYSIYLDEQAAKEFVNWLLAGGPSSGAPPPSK([Phe-Ac‑Cys-PEG40kDa])-NH2; lactam 16-20)
5.36

====

Collected pEC50 values appear next to each entry.
molecular target: glucagon receptor (Homo sapiens); experiment: cAMP induction at the glucagon receptor (agonist activity), luciferase reporter assay in HEK293 cells; format: cell-based; parameters: expressed in transfected cells; host or cells: HEK293; settings: Table 5; read-out: GR EC50
Bridge positions count the residues as written; N and C are the ends. Square brackets hold non-standard residues; d marks the D form. Side chains are listed from the residue outwards. Ends that are not written are not given here. PEG40kDa = 40 kDa polyethylene glycol; Ac‑Cys = acetylated cysteine; Aib = CC(C)(N)C(=O)O
Scale explanation: pEC50 corresponds to minus log10 of a concentration expressed in moles per litre.

mt-220: as mt-217 with Phe as the amino acid spacer; SEQ ID NO: 22 (Y[Aib]QGTFTSDYSIYLDEQAAKEFVK([Phe-Ac‑Cys-PEG40kDa])FLLAGGPSSGAPPPS-NH2; lactam 16-20)
8.01
mt-219: as mt-217 with Arg as the amino acid spacer; SEQ ID NO: 21 (Y[Aib]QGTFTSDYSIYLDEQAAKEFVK([Arg-Ac‑Cys-PEG40kDa])FLLAGGPSSGAPPPS-NH2; lactam 16-20)
7.75
mt-227: as mt-219 but modified Lys at position 40 and Asn at position 24; SEQ ID NO: 360 (Y[Aib]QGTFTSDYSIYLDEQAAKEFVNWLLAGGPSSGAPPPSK([Arg-Ac‑Cys-PEG40kDa])-NH2; lactam 16-20)
8.37

GET /values?readout=pEC50&item= mt-217: lactam 16-20 glucagon analog, Lys24 carrying Ala spacer, acetylated Cys and 40 kDa PEG; SEQ ID NO: 19 (Y[Aib]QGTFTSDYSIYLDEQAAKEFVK([Ala-Ac‑Cys-PEG40kDa])FLLAGGPSSGAPPPS-NH2; lactam 16-20)
7.86
